- System: Saccharomyces cerevisiae
- method: protein stability index of tFT-peptide fusion (C-terminal peptide) (PSI (0-1 scale)); higher = more stable (slower turnover);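 also: PSI is a weighted mean of sequencing reads over stability bins, variants kept only with over 10 reads, mCherry proximal and sfGFP distal, peptide attached via GGGS linker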
- condition.label: genetic background: das1 deletion; temperature: 37 C
Provide the reported protein stability index of each item.
Answers are plain numbers.

Illustrative cases are given below, each with its answer.
{"item.sequence": "SYWNSSPKCGNW", "protein stability index": 0.77}
{"item.sequence": "SDAIKITFIIHN", "protein stability index": 0.667}

Proceeding to the next sequence to report its protein stability index.
Value lookup for protein stability index; key = LLGDFAVLTCVF
0.482

====

- Test system: Saccharomyces cerevisiae
- method: protein stability index of tFT-peptide fusion (C-terminal peptide) (PSI (0-1 scale)); higher = more stable (slower turnover)
- condition.label: genetic background: wild type; temperature: 30 C
Provide the reported protein stability index of each item.
One number for each entry.

Illustrative cases are given below, each with its answer.
{"item.sequence": "LPPTPSSPPPPL", "test.system": "Saccharomyces cerevisiae", "observed.property": "protein stability index", "reading": 0.709}
{"item.sequence": "ERLRLVPRKGLL", "test.system": "Saccharomyces cerevisiae", "observed.property": "protein stability index", "reading": 0.714}
{"item.sequence": "RTPLPPPRPSTY", "test.system": "Saccharomyces cerevisiae", "observed.property": "protein stability index", "reading": 0.719}

Would you mind listing protein stability index for each of the following sequences?
1. RICRWGSRAVVG
2. AGGGGGTRVHWR
3. ARRYVPPRWGSL
4. CRTFSALVDRFT
5. EEQKKIRKRPEK
6. RRLGCDFDTYKK

[0.685, 0.682, 0.679, 0.687, 0.697, 0.718]

FYI, the data here is from the supplement of paper PMC10724198.
